# System: HepG2
# experiment_notes: Antiproliferative activity against human HepG2 cells assessed as reduction in cell viability after 5 days by MTT assay
# Assay type: functional, cell-based
# condition_description: time 5.0 day
Calls of active or inactive are those of the source. The rule behind the calls is not given here.
measured_attribute: Activity

QUERY: Recorded Activity for "CC(C)=CC(=O)N(C)C/C=C/CC/C=C/C=C/C[C@@H](C)c1nc(C[C@@H](C)[C@H]2OC(=O)c3c(ccc(C)c3O)[C@@H]2O)co1" , please?
RESULT: Active

QUERY: GET /values?readout=Activity&item= CC(C)=CC(=O)N(C)C/C=C/CC/C=C/C=C/CC(O)(CO)c1nc(C[C@@H](C)[C@H]2OC(=O)c3c(ccc(C)c3O)[C@@H]2O)co1 (stereo partly drawn)
RESULT: Active

QUERY: Any idea what its Activity is? The molecule is CC(C)=CC(=O)N(C)C/C=C/CC/C=C/C=C/CC(C)(O)c1nc(C[C@@H](C)[C@H]2OC(=O)c3c(ccc(C)c3O)[C@@H]2O)co1 (stereo partly drawn)
RESULT: Active
